Tested on: Morganella morganii
protocolText: Antibacterial activity against indole positive Proteus morganii 179 assessed as growth inhibition by two-fold agar dilution method
Format: functional
valueType: MIC

// query Please look up its MIC: CC(=O)OCC1=C(C(=O)O)N2C(=O)[C@@H](NC(=O)C(NC(=O)CSCC(=O)O)c3ccccc3)[C@H]2SC1 (stereo not given in full)
// result 12.5 µg/mL

// query // MIC lookup, key: Cn1nnnc1SCC1=C(C(=O)[O-])N2C(=O)[C@@H](NC(=O)C(NC(=O)COCC(=O)[O-])c3ccccc3)[C@H]2SC1.[Na+].[Na+] (stereo not given in full)
// result 0.4 µg/mL

// query I am curious: what MIC value has been reported for CC(=O)OCC1=C(C(=O)[O-])N2C(=O)[C@@H](NC(=O)C(NC(=O)C3CCC(C(=O)[O-])O3)c3ccccc3)[C@H]2SC1.[Na+].[Na+] (stereo not given in full) ?
// result 50 µg/mL

---
// query MIC value for entry Cn1nnnc1SCC1=C(C(=O)[O-])N2C(=O)[C@@H](NC(=O)C(NC(=O)C3CO3)c3ccccc3)[C@H]2SC1.[Na+] (mixture of isomers)
// result 3.1 µg/mL

// query Form field: reported MIC of `CC(=O)OCC1=C(C(=O)O)N2C(=O)[C@@H](NC(=O)[C@H](N)c3ccccc3)[C@H]2SC1`
// result > 200 µg/mL

// query Give the measured MIC of Cn1nnnc1SCC1=C(C(=O)[O-])N2C(=O)[C@@H](NC(=O)C(NC(=O)CCCC(=O)[O-])c3ccccc3)[C@H]2SC1.[Na+].[Na+] (stereo not given in full) .
// result 12.5 µg/mL

// query MIC for Cn1nnnc1SCC1=C(C(=O)[O-])N2C(=O)[C@@H](NC(=O)C(NC(=O)[C@H]3C[C@H]3C(=O)[O-])c3ccccc3)[C@H]2SC1.[Na+].[Na+] (mixture of isomers) ?
// result 6.3 µg/mL

// query If you can, please state the reported MIC value of CC(=O)OCC1=C(C(=O)[O-])N2C(=O)[C@@H](NC(=O)C(NC(=O)C3OC3C(=O)[O-])c3ccccc3)[C@H]2SC1.[Na+].[Na+] (single isomer, unassigned; diastereomer 1) .
// result 3.1 µg/mL

// query Find the recorded MIC belonging to Cn1nnnc1SCC1=C(C(=O)[O-])N2C(=O)[C@@H](NC(=O)[C@H](NC(=O)[C@H]3O[C@@H]3C(=O)[O-])c3ccccc3)[C@H]2SC1.[Na+].[Na+] (mixture of isomers) and report it.
// result 25 µg/mL

// query Looking for the measured MIC of CC(=O)OCC1=C(C(=O)[O-])N2C(=O)[C@@H](NC(=O)C(NC(=O)[C@@H]3O[C@@H]3C(=O)[O-])c3ccccc3)[C@H]2SC1.[Na+].[Na+] (single isomer, unassigned; diastereomer 2) , can you help?
// result 200 µg/mL

---

Tested on: Morganella morganii
protocolText: Antibacterial activity against indole positive Proteus morganii 179 assessed as growth inhibition by two-fold agar dilution method
Format: functional
valueType: MIC

Take a look at these entries with their results.
// query What does the data say about its MIC? Entry: CC(=O)OCC1=C(C(=O)[O-])N2C(=O)[C@@H](NC(=O)C(NC(=O)CCCC(=O)[O-])c3ccccc3)[C@H]2SC1.[Na+].[Na+] (stereo partly specified)
// result > 200 µg/mL

// query # lookup: MIC of CC(=O)OCC1=C(C(=O)[O-])N2C(=O)[C@@H](NC(=O)C(NC(=O)COCC(=O)[O-])c3ccccc3)[C@H]2SC1.[Na+].[Na+] (stereo partly specified)
// result 12.5 µg/mL

// query Can you share its MIC? I mean this molecule: Cn1nnnc1SCC1=C(C(=O)[O-])N2C(=O)[C@@H](NC(=O)C(NC(=O)[C@@H]3O[C@@H]3C(=O)[O-])c3ccccc3)[C@H]2SC1.[Na+].[Na+] (mixture of isomers)
// result 3.1 µg/mL

// query Report MIC for Cn1nnnc1SCC1=C(C(=O)[O-])N2C(=O)[C@@H](NC(=O)C(NC(=O)C3CCC(C(=O)[O-])O3)c3ccccc3)[C@H]2SC1.[Na+].[Na+] (mixture of isomers) please.
// result 1.6 µg/mL

// query If you can, please state the reported MIC value of CC(=O)OCC1=C(C(=O)[O-])N2C(=O)[C@@H](NC(=O)C(NC(=O)C3CO3)c3ccccc3)[C@H]2SC1.[Na+] (mixture of isomers) .
// result 25 µg/mL

Others:
// query Reported MIC for Cn1nnnc1SCC1=C(C(=O)[O-])N2C(=O)[C@@H](NC(=O)C(NC(=O)CSCC(=O)[O-])c3ccccc3)[C@H]2SC1.[Na+].[Na+] (stereo partly specified) : what is it?
// result 1.6 µg/mL
